Hey, just so you know, these numbers are from paper PMC9007972.

ASSAYED TARGET: ALDH1A3 (Homo sapiens, UniProt P47895)
Sequence (P47895 2-512): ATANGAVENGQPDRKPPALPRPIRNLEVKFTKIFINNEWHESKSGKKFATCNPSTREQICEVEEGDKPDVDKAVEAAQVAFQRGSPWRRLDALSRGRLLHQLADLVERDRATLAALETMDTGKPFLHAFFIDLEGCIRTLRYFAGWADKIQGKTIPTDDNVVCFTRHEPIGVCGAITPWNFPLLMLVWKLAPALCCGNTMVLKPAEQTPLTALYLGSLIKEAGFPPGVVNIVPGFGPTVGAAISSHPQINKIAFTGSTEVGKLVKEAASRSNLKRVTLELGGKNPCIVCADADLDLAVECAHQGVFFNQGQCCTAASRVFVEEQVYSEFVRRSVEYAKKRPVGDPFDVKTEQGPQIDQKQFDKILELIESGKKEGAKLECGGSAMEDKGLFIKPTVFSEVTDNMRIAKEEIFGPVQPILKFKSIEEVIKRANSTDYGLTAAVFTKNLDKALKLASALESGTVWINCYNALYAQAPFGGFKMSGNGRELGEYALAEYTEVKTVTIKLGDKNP
EXPERIMENTAL READOUT: Ki (µM)
Answer with a number only, understood to be in µM.

For Nc1ncnc2c1ncn2[C@@H]1O[C@H](CO[P@@](=O)(O)O[P@](=O)(O)OP(=O)(O)O)[C@@H](O)[C@H]1O [ATP] the compound record lists Ki as 480
